- STUDY TARGET: T1, Her4 on CHO cells (CHO-Her4) (UniProt Q15303 26-1308, limits assumed)
- T1 construct: whole, on cells
- T1 sequence (Q15303 26-1308 limits assumed): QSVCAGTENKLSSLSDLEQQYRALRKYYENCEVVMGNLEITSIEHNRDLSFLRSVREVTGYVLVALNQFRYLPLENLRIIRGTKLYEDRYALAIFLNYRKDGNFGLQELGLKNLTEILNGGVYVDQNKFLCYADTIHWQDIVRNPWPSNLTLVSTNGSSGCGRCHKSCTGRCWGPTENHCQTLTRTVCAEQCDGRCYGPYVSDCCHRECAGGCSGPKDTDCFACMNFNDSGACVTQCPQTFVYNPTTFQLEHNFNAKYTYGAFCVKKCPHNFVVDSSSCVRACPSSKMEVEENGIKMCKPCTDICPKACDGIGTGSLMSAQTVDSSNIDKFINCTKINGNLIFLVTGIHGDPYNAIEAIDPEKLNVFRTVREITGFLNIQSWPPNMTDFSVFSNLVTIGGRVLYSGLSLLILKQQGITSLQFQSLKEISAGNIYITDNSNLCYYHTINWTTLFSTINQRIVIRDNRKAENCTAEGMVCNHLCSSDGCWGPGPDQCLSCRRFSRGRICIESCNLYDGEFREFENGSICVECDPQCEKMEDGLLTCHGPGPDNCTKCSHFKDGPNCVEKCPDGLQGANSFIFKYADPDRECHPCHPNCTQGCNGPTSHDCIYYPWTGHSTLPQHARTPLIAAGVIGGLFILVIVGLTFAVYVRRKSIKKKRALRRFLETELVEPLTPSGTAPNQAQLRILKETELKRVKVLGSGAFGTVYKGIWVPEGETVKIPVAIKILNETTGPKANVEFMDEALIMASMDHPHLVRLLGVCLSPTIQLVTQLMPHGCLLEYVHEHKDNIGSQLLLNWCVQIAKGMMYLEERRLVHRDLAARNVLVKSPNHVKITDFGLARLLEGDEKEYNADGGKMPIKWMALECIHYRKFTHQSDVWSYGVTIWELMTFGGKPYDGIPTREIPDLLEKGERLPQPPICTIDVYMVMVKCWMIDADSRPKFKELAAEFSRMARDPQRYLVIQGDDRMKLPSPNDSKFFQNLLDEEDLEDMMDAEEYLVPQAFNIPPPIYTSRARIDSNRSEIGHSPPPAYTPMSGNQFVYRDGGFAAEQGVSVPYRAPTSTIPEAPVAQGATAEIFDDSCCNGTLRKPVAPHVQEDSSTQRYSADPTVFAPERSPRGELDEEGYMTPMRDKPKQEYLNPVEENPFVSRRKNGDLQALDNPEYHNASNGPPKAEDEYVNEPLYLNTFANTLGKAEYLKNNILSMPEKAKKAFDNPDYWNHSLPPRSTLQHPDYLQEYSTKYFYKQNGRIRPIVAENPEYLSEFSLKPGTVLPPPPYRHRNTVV
- ASSAY NAME: FACS on CHO-Her4 cells, purified IgG, R-PE anti-mouse IgG
READOUT LABEL: binding result

BINDER	EXPERIMENTAL RESULT
588F42 (antibody, V domains shown, Purified mouse IgG from a hybridoma; also called 588F42-HC; 588F42-LC) VH: EVQLQQSGPELVKPGASVKMSCKASGYTFTSYVMHWVKQKPGQGLEWLGYINPYNDGTKYNEKFKGKATLTSDKSSSTAYMELISLTSEDSAVYYCAREASYGNPFAYWGQGTLVTVSA VL: DIVMTQSPASLSASVGETVTITCRTSENIYSYLAWFQQKQGNSPQLLVYNTKTLAEGVPSRFSGSGSGTQFSLKINSLQPEDFGNYYCQHHYDTPWTFGGGTKLEIK	no binding
588E10 (antibody, V domains shown, Purified mouse IgG from a hybridoma; also called 588E10-HC; 588E10-LC) VH: EVQLQQSGPKLVGPGESVKISCKGSGYTFTDYGMHWVKQSHAKRLEWIGVITIYDGHTNYNQNFKGKAALTVDKSSNTAYLELARMTSEDSAIYYCARGDYDLFWYLDVWGAGTTLTVSS VL: DVVMTQTPLSLTVSLGDQASISCRSSQNIKHSDGNTYLEWYLQKPGQSPKLLIYKVSNRFSGVPDRFSGSGSGTDFTLKISRVEAEDLGVYFCFQGSHVPLTFGAGTKLELKR	no binding
588E22 (antibody, V domains shown, Purified mouse IgG from a hybridoma; also called 588E22-HC; 588E22-LC) VH: DVQLQESGPELVGPGESVKISCKGSGYTFTDYGMHWVKQSHAKRLEWIGVITIYDGHTNYNQNFKGKAALTVDKSSNTAYPELARMTSEDSAIYYCARGDYDLFWYLDVWGAGTTVTVSS VL: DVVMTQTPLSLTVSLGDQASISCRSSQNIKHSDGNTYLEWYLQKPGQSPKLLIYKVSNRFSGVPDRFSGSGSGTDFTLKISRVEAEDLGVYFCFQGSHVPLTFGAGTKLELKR	no binding

The measured values listed here are drawn from patent US20120195831A1.
